Target: Protein Kinase A (PKA) (Homo sapiens, UniProt P17612)
Endpoint Label: pKi
pKi here is simply -log10 of the concentration when that concentration is written in mol/L.

pKi reading for `NCCNS(=O)(=O)c1cccc2cnccc12` : 5.46
